- Test system: Brain
- assay_info: Drug level in Sprague-Dawley rat brain at 30 mg/kg, po
- Type: ADME, organism-based
- Design: dose 30 mg/kg, route oral
- details: in vivo, read-out: Drug uptake
recorded_metric: concentration

COc1cc(-c2ccc(N[C@@H](C)c3ccc(F)cc3)nc2)ccc1-n1cnc(C)c1 8.75 µM

====

- tested_system: Gamma-secretase
- assay_info: Inhibition of gamma-secretase in human SHSY5Y cells expressing human recombinant Swedish variant of APP K595N/M596L assessed as reduction of amyloid beta42 level after 48 hrs by AlphaLISA assay
- Type: cell-based
- details: sh-sy5y
pIC50 values for the compounds below.
recorded_metric: pIC50

CCOc1cc(-c2ccc(N[C@@H](C)c3ccc(F)cc3)nc2)ccc1-n1cnc(C)c1 6.3
COc1cc(-c2ccc(N[C@@H](C)c3ccc(F)cc3)nc2)ccc1-c1sc(C)nc1C 6.4
COc1cc(-c2ccc(N[C@@H](C)c3ccc(F)cc3)cn2)ccc1-n1cnc(C)c1 6.2
COc1cc(-c2noc(N[C@@H](C)c3ccc(F)cc3)n2)ccc1-n1cnc(C)c1 6.5
COc1cc(-c2nnc(N[C@@H](C)c3ccc(F)cc3)s2)ccc1-n1cnc(C)c1 7.1
Cc1cn(-c2ccc(-c3ccc(N[C@@H](C)c4ccc(F)cc4)nc3)cc2Cl)cn1 6.4
Cc1cn(-c2ccc(-c3ccc(N[C@@H](C)c4ccc(F)cc4)nc3)cc2N(C)C)cn1 4.3
Cc1cn(-c2ccc(-c3ccc(N[C@@H](C)c4ccc(F)cc4)nc3)cc2C)cn1 5.2

====

- assay_info: Drug level in Sprague-Dawley rat brain at 30 mg/kg/day, po for 5 days measured 6 hrs after last dose
- Format: ADME, organism-based
- Design: route oral
- details: read-out: Drug uptake
recorded_metric: concentration at 6 h (µM)

COc1cc(-c2ccc(N[C@@H](C)c3ccc(F)cc3)nc2)ccc1-n1cnc(C)c1 8.86
COc1cc(-c2cc(C)c(N[C@@H](C)c3ccc(F)cc3)nn2)ccc1-n1cnc(C)c1 10.4

====

pIC50 values for the compounds below.
- tested_system: Gamma-secretase
- assay_info: Inhibition of gamma-secretase in human SHSY5Y cells expressing human recombinant Swedish variant of APP K595N/M596L assessed as reduction of amyloid beta42 level after 48 hrs by AlphaLISA assay
- Type: cell-based
- details: sh-sy5y
recorded_metric: pIC50

COc1cc(-c2ncc(N[C@@H](C)c3ccc(F)cc3)cn2)ccc1-n1cnc(C)c1 6.6
COc1cc(-c2ccc(N[C@@H](C)c3ccc(F)cc3)nc2)ccc1-c1ccnc(C)c1 6.3
COc1cc(-c2ccc(N[C@@H](C)c3ccc(F)cc3)nc2)ccc1-n1cnc(C)c1 6.9
COc1cc(-c2ccc(N[C@@H](C)c3ccc(F)cc3)nc2)ccc1-c1ccnnc1 6.4
COc1cc(-c2cnc(N[C@@H](C)c3ccc(F)cc3)nc2)ccc1-n1cnc(C)c1 6.7

====

- assay_info: Volume of distribution at steady state in Sprague-Dawley rat at 1 mg/kg, iv and 2 mg/kg, po
- Type: ADME, organism-based
- details: in vivo, read-out: Vdss
recorded_metric: Vd (L/kg)

COc1cc(-c2ccc(N[C@@H](C)c3ccc(F)cc3)nc2)ccc1-n1cnc(C)c1.Cl 3.7

====

- tested_system: Gamma-secretase
- assay_info: Inhibition of gamma-secretase in human SHSY5Y cells expressing human recombinant Swedish variant of APP K595N/M596L assessed as reduction of amyloid beta40 level after 48 hrs by AlphaLISA assay
- Format: cell-based
- details: sh-sy5y
pIC50 values for the compounds below.
recorded_metric: pIC50

COc1cc(-c2ccc(N[C@@H](C)c3ccc(F)cc3)nc2)ccc1-c1ccnc(C)c1 5.2
Cc1cn(-c2ccc(-c3ccc(N[C@@H](C)c4ccc(F)cc4)nc3)cc2N(C)C)cn1 4.4
COc1cc(-c2ccc(N[C@@H](C)c3ccc(F)cc3)nc2)ccc1-c1ccnnc1 5.7
COc1cc(-c2ccc(N[C@@H](C)c3ccc(F)cc3)nc2)ccc1-c1cc(C)ns1 5.7
Cc1cn(-c2ccc(-c3ccc(N[C@@H](C)c4ccc(F)cc4)nc3)cc2Cl)cn1 5.7
Cc1cn(-c2ccc(-c3ccc(N[C@@H](C)c4ccc(F)cc4)nc3)cc2C)cn1 4.8
COc1cc(-c2cnc(N[C@@H](C)c3ccc(F)cc3)nc2)ccc1-n1cnc(C)c1 6
COc1cc(-c2ncc(N[C@@H](C)c3ccc(F)cc3)cn2)ccc1-n1cnc(C)c1 5.9
CCOc1cc(-c2ccc(N[C@@H](C)c3ccc(F)cc3)nc2)ccc1-n1cnc(C)c1 5.3
COc1cc(-c2cnc(N[C@@H](C)c3ccc(F)cc3)s2)ccc1-n1cnc(C)c1 4.3
COc1cc(-c2noc(N[C@@H](C)c3ccc(F)cc3)n2)ccc1-n1cnc(C)c1 4.5
COc1cc(-c2nnc(N[C@@H](C)c3ccc(F)cc3)s2)ccc1-n1cnc(C)c1 6.2
Cc1cn(-c2ccc(-c3ccc(N[C@@H](C)c4ccc(F)cc4)nc3)cc2-c2ccccc2)cn1 5
COc1cc(-c2ccc(N[C@@H](C)c3ccc(F)cc3)nc2)ccc1-c1sc(C)nc1C 5.3
Cc1cn(-c2ccc(-c3ccc(N[C@@H](C)c4ccc(F)cc4)nc3)cc2OC(C)C)cn1 5.1
COc1cc(-c2ccc(N[C@@H](C)c3ccc(F)cc3)nc2)ccc1-n1cnc(C)c1 6.1
COc1cc(-c2ccc(N[C@@H](C)c3ccc(F)cc3)cn2)ccc1-n1cnc(C)c1 5

These entries and their values trace back to ChEMBL document CHEMBL1806427.
